FYI, the data here is from ChEMBL document CHEMBL4818990.

organism: Homo sapiens; test: Agonist activity at HIF-2 (unknown origin) expressed in bacterial expression system assessed as change in melting temperature at 10 uM measured by thermal shift assay; settings: filed as agonist
EXPERIMENTAL_READOUT: ΔTm (°C)

Reference set (4 entries):
O=S1(=O)N=C(Oc2cc(C(F)(F)F)cc(C(F)(F)F)c2)c2ccccc21 0.06
O=S1(=O)N=C(Nc2ccccc2)c2ccccc21 2
Cc1cc(C)cc(NC2=NS(=O)(=O)c3ccccc32)c1 1.93
O=S1(=O)N=C(Nc2cc(Br)cc(Br)c2)c2ccccc21 2.52

a. O=S1(=O)N=C(Nc2cc(F)cc(F)c2)c2ccccc21
b. O=C1N=C(Nc2cc(C(F)(F)F)cc(C(F)(F)F)c2)c2ccccc21
c. CN(C1=NS(=O)(=O)c2ccccc21)c1cc(C(F)(F)F)cc(C(F)(F)F)c1
Please produce an ascending ranking of these compounds based on ΔTm. Please write the labels in the order that was asked for.
b, c, a

* * *

species: Homo sapiens; assay: Agonist activity at HIF-2 (unknown origin) expressed in bacterial expression system assessed as change in melting temperature at 10 uM measured by thermal shift assay; conditions: filed as agonist
EXPERIMENTAL_READOUT: ΔTm (°C)

O=S1(=O)N=C(Nc2cc(Cl)cc(Cl)c2)c2ccccc21 2.08
O=S1(=O)N=C(Nc2cc(C(F)(F)F)cc(C(F)(F)F)c2)c2ccccc21 2.23
COc1cc(NC2=NS(=O)(=O)c3ccccc32)cc(OC)c1 1.89
